Target protein (sequence): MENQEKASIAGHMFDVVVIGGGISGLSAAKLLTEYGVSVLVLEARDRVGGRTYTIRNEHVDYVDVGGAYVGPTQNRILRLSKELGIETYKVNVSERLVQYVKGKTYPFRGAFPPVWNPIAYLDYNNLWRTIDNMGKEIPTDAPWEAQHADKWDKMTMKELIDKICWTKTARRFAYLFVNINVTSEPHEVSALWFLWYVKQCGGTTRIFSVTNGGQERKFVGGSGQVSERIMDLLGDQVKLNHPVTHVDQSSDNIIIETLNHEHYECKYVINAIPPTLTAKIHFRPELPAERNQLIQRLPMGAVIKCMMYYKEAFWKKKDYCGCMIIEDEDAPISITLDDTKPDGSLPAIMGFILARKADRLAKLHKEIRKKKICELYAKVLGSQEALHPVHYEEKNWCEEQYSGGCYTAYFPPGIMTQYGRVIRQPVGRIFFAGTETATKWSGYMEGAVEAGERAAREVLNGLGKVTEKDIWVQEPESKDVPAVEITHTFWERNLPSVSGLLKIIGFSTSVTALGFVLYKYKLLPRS
MEASURED PROPERTY: IC50 (nM)
// note: answer is a bare numeric in nM

Look at this molecule and give its reported IC50. CCOC(=O)C1=C(Nc2ccc(F)cc2)CC(c2ccc(C(F)(F)F)cc2)N(c2ccc(F)cc2)C1c1ccc(C(F)(F)F)cc1 (stereo not shown)
520

---

Target: MAO-B (Homo sapiens)
Sequence (P27338 1-520): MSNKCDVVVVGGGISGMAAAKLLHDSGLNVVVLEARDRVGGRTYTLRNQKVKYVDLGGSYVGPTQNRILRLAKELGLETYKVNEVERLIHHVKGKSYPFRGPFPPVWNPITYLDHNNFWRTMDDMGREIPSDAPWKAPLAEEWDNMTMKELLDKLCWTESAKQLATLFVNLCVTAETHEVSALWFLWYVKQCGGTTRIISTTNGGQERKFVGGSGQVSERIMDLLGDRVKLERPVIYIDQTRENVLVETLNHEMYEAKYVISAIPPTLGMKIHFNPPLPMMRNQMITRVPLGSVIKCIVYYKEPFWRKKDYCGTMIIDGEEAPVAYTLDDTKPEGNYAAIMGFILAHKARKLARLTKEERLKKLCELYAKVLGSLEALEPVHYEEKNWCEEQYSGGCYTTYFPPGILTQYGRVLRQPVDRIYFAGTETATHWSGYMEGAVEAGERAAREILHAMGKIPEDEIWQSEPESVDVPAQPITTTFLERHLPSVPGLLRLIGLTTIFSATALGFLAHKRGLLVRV
MEASURED PROPERTY: IC50 (µM)
The answer is to be given in µM; state only the numeric part.

Please look up its IC50: CCOC(=O)C1=C(Nc2ccc(F)cc2)CC(c2ccc(C(F)(F)F)cc2)N(c2ccc(F)cc2)C1c1ccc(C(F)(F)F)cc1 (stereo not shown)
1.02

The reported measurements were obtained from paper PMC9404513.
